target: T1, eukaryotically produced human IL-6 (human, UniProt P05231 30-212); experiment: SPR (Biacore), periplasmic Fab
T1 construct: Immobilised on the Biacore chip; also called Euk IL-6; EUK IL-6 (3-1)
reportedEndpoint: fold improvement of KD over 28A6 (parental)
Entry format: amount then unit.

Recorded fold improvement of KD over 28A6 (parental), per entry:
GET /values?readout=fold improvement of KD over 28A6 (parental)&item= 48H1 (Fab, V domains shown, Periplasmic Fab; Suffix 'g2, R4' not explained; also called 48H1g2, R4) VH: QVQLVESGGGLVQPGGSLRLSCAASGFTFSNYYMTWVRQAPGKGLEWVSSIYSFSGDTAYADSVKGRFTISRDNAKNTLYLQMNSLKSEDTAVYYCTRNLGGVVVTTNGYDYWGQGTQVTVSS VL: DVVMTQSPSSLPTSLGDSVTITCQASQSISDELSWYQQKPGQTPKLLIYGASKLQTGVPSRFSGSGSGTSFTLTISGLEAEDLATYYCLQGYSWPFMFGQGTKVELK
0.91 fold

Given the binder 55C11 (Fab, V domains shown, Periplasmic Fab; Suffix 'f' not explained; also called 55C11f) VH: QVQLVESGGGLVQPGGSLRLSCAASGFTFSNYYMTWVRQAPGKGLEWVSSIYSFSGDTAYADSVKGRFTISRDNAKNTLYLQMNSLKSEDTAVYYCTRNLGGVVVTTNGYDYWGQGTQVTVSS VL: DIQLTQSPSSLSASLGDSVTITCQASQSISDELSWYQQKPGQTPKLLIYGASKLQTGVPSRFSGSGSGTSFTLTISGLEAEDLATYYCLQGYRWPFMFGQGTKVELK , what is its reported fold improvement of KD over 28A6 (parental)?
1.8 fold

Param item = 55A11 (Fab, V domains shown, Periplasmic Fab; Suffix 'd' of the label not explained; also called 55A11d) VH: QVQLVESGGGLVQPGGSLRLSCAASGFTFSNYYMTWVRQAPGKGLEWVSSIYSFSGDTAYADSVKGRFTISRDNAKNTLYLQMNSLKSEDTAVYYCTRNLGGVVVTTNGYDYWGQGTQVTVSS VL: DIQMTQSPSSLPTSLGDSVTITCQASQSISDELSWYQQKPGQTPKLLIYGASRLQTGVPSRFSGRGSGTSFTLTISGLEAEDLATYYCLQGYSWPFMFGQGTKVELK ; retrieve measured fold improvement of KD over 28A6 (parental).
0.92 fold

Let us examine a further case.
Look up fold improvement of KD over 28A6 (parental): 55E10 (Fab, V domains shown, Periplasmic Fab; Suffix 'g1' not explained; also called 55E10g1) VH: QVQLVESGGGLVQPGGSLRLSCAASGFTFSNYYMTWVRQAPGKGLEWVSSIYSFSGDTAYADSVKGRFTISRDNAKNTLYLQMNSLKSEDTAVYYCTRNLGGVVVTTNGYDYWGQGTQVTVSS VL: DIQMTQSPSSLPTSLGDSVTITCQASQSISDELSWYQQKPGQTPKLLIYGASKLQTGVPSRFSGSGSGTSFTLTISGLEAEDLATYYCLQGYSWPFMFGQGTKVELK
1.52 fold
